# TEST DESCRIPTION: Pharmacokinetic study after intravenous administration to rats
# Type: in vivo, rat
# TEST PARAMETERS: rat, plasma, single dose 1.67 mg/kg, read-out: AUC(0–24 h)
Hi there, I'd appreciate the recorded AUC(0-t) for every entry that follows.
Your answer should be a plain number; it is taken to be in ng·h/mL.

So what does the record say about AUC(0-t) for Cc1c(Cc2ccc(C#N)cc2)c(=O)oc2cc(OCCOc3no[n+]([O-])c3S(=O)(=O)c3ccccc3)ccc12 [CY-16S-4A43] ?
669

So what does the record say about AUC(0-t) for Cc1c(Cc2ccc(C(F)(F)F)cc2)c(=O)oc2cc(OCCOc3no[n+]([O-])c3S(=O)(=O)c3ccccc3)ccc12 [CY-16S-4A93] ?
3850

* * *

# TEST DESCRIPTION: Pharmacokinetic study after intravenous administration to rats
# Type: in vivo, rat
# TEST PARAMETERS: rat, plasma, single dose 1.67 mg/kg
# Procedure: Rats were randomly divided into three groups, namely A, B, and C, with six rats in each group. […] Vmax and Km were estimated via the nonlinear regression of the Michaelis–Menten model by using GraphPad Prism (Version 6.01, http://www.graphpad.com/). The PK parameters were determined from drug plasma concentration-time data by employing a noncompartmental approach using Phoenix WinNonlin (version 3.0).
Hi there, I'd appreciate the recorded Tmax for every entry that follows.
Your answer should be a plain number; it is taken to be in min.

So what does the record say about Tmax for Cc1c(Cc2ccc(C(F)(F)F)cc2)c(=O)oc2cc(OCCOc3no[n+]([O-])c3S(=O)(=O)c3ccccc3)ccc12 [CY-16S-4A93] ?
6

So what does the record say about Tmax for Cc1c(Cc2ccc(C#N)cc2)c(=O)oc2cc(OCCOc3no[n+]([O-])c3S(=O)(=O)c3ccccc3)ccc12 [CY-16S-4A43] ?
6

* * *

# TEST DESCRIPTION: Pharmacokinetic study after intravenous administration to rats
# Type: in vivo, rat
# TEST PARAMETERS: rat, plasma, single dose 0.5 mg/kg
# Method: Rats were randomly divided into three groups, namely A, B, and C, with six rats in each group. […] Vmax and Km were estimated via the nonlinear regression of the Michaelis–Menten model by using GraphPad Prism (Version 6.01, http://www.graphpad.com/). The PK parameters were determined from drug plasma concentration-time data by employing a noncompartmental approach using Phoenix WinNonlin (version 3.0).
MEASUREMENT KIND: Vd (L/kg)
Your answer should be a plain number; it is taken to be in L/kg.

So what does the record say about Vd for Cc1c(Cc2ccc(F)cc2)c(=O)oc2cc(OCCOc3no[n+]([O-])c3S(=O)(=O)c3ccccc3)ccc12 [CY-14S-4A83] ?
0.56

* * *

# TEST DESCRIPTION: PBPK modeling (Simcyp Rat)
# TEST PARAMETERS: blood, intravenous, in rats, calculated on the basis of B/P and the plasma clearance rate, read-out: liver blood clearance
Hi there, I'd appreciate the recorded clearance for every entry that follows.
Your answer should be a plain number; it is taken to be in mL/min.

So what does the record say about clearance for Cc1c(Cc2ccc(F)cc2)c(=O)oc2cc(OCCOc3no[n+]([O-])c3S(=O)(=O)c3ccccc3)ccc12 [CY-14S-4A83] ?
0.23

So what does the record say about clearance for Cc1c(Cc2ccc(C#N)cc2)c(=O)oc2cc(OCCOc3no[n+]([O-])c3S(=O)(=O)c3ccccc3)ccc12 [CY-16S-4A43] ?
1.87

So what does the record say about clearance for Cc1c(Cc2ccc(C(F)(F)F)cc2)c(=O)oc2cc(OCCOc3no[n+]([O-])c3S(=O)(=O)c3ccccc3)ccc12 [CY-16S-4A93] ?
0.24

* * *

# TEST DESCRIPTION: Pharmacokinetic study after intravenous administration to rats
# Format: in vivo, rat
# TEST PARAMETERS: rat, plasma, 0.5 mg/kg, experimental value compared with PBPK prediction, read-out: experimental CL
MEASUREMENT KIND: clearance (mL/min)
Your answer should be a plain number; it is taken to be in mL/min.

So what does the record say about clearance for Cc1c(Cc2ccc(F)cc2)c(=O)oc2cc(OCCOc3no[n+]([O-])c3S(=O)(=O)c3ccccc3)ccc12 [CY-14S-4A83] ?
1.73

* * *

Hi there, I'd appreciate the recorded microsomal CLint for every entry that follows.
# TEST DESCRIPTION: In vitro intrinsic clearance, disappearance via rat liver microsomes
# Type: in vitro ADME
# TEST PARAMETERS: Sprague Dawley, rat, pooled liver microsomes, pH 7.4, rat hepatic microsomes; Vmax divided by Km
Your answer should be a plain number; it is taken to be in µL/min/mg.

So what does the record say about microsomal CLint for Cc1c(Cc2ccc(C(F)(F)F)cc2)c(=O)oc2cc(OCCOc3no[n+]([O-])c3S(=O)(=O)c3ccccc3)ccc12 [CY-16S-4A93] ?
174

So what does the record say about microsomal CLint for Cc1c(Cc2ccc(C#N)cc2)c(=O)oc2cc(OCCOc3no[n+]([O-])c3S(=O)(=O)c3ccccc3)ccc12 [CY-16S-4A43] ?
333

So what does the record say about microsomal CLint for Cc1c(Cc2ccc(F)cc2)c(=O)oc2cc(OCCOc3no[n+]([O-])c3S(=O)(=O)c3ccccc3)ccc12 [CY-14S-4A83] ?
336

* * *

Hi there, I'd appreciate the recorded Km at 20 min for every entry that follows.
# TEST DESCRIPTION: In vitro intrinsic clearance, disappearance via rat liver microsomes
# Format: in vitro ADME
# TEST PARAMETERS: pooled rat liver microsomes, pH 7.4; rat hepatic microsomes 0.2 mg protein/mL, NADPH 1 mM, 20 min

So what does the record say about Km at 20 min for Cc1c(Cc2ccc(C#N)cc2)c(=O)oc2cc(OCCOc3no[n+]([O-])c3S(=O)(=O)c3ccccc3)ccc12 [CY-16S-4A43] ?
1.4 µM

So what does the record say about Km at 20 min for Cc1c(Cc2ccc(C(F)(F)F)cc2)c(=O)oc2cc(OCCOc3no[n+]([O-])c3S(=O)(=O)c3ccccc3)ccc12 [CY-16S-4A93] ?
1.3 µM

So what does the record say about Km at 20 min for Cc1c(Cc2ccc(F)cc2)c(=O)oc2cc(OCCOc3no[n+]([O-])c3S(=O)(=O)c3ccccc3)ccc12 [CY-14S-4A83] ?
18 µM

* * *

# TEST DESCRIPTION: Pharmacokinetic study after intravenous administration to rats
# Format: in vivo, rat
# TEST PARAMETERS: rat, plasma, single dose 0.5 mg/kg
MEASUREMENT KIND: MRT (h)
Your answer should be a plain number; it is taken to be in h.

So what does the record say about MRT for Cc1c(Cc2ccc(F)cc2)c(=O)oc2cc(OCCOc3no[n+]([O-])c3S(=O)(=O)c3ccccc3)ccc12 [CY-14S-4A83] ?
6.1

* * *

Hi there, I'd appreciate the recorded AUC(0-inf) for every entry that follows.
# TEST DESCRIPTION: Pharmacokinetic study after intravenous administration to rats
# Type: in vivo, rat
# TEST PARAMETERS: rat, plasma, single dose 1.67 mg/kg
# Protocol: Rats were randomly divided into three groups, namely A, B, and C, with six rats in each group. […] Vmax and Km were estimated via the nonlinear regression of the Michaelis–Menten model by using GraphPad Prism (Version 6.01, http://www.graphpad.com/). The PK parameters were determined from drug plasma concentration-time data by employing a noncompartmental approach using Phoenix WinNonlin (version 3.0).

So what does the record say about AUC(0-inf) for Cc1c(Cc2ccc(C#N)cc2)c(=O)oc2cc(OCCOc3no[n+]([O-])c3S(=O)(=O)c3ccccc3)ccc12 [CY-16S-4A43] ?
673 ng·h/mL

So what does the record say about AUC(0-inf) for Cc1c(Cc2ccc(C(F)(F)F)cc2)c(=O)oc2cc(OCCOc3no[n+]([O-])c3S(=O)(=O)c3ccccc3)ccc12 [CY-16S-4A93] ?
3850 ng·h/mL

* * *

# TEST DESCRIPTION: Pharmacokinetic study after intravenous administration to rats
# Format: in vivo, rat
# TEST PARAMETERS: rat, plasma, single dose 0.5 mg/kg
MEASUREMENT KIND: Cmax (ng/mL)
Your answer should be a plain number; it is taken to be in ng/mL.

So what does the record say about Cmax for Cc1c(Cc2ccc(F)cc2)c(=O)oc2cc(OCCOc3no[n+]([O-])c3S(=O)(=O)c3ccccc3)ccc12 [CY-14S-4A83] ?
946

* * *

# TEST DESCRIPTION: Pharmacokinetic study after intravenous administration to rats
# Type: in vivo, rat
# TEST PARAMETERS: rat, plasma, single dose 1.67 mg/kg
MEASUREMENT KIND: MRT (h)
Your answer should be a plain number; it is taken to be in h.

So what does the record say about MRT for Cc1c(Cc2ccc(C#N)cc2)c(=O)oc2cc(OCCOc3no[n+]([O-])c3S(=O)(=O)c3ccccc3)ccc12 [CY-16S-4A43] ?
4.5

So what does the record say about MRT for Cc1c(Cc2ccc(C(F)(F)F)cc2)c(=O)oc2cc(OCCOc3no[n+]([O-])c3S(=O)(=O)c3ccccc3)ccc12 [CY-16S-4A93] ?
2.2

src = paper PMC9866629
